Numbers sourced from the DeepSol protein solubility set.

assay: soluble on expression in E. coli; label from the status in PepcDB or PDB records
recordedMetric: soluble on expression in E. coli

Sample answers from the record:
Incoming: Provide only the value of recorded soluble on expression in E. coli for MGSDKIHHHHHHCVRVPTLMIVPEAAQSGVAETVFVASNRVFANGQFQSARQDDVTYTRFTVQIPQDRDAGAVRPGRARRTGPNLRTDFVASDGVHLGGEGRFQSELLAEARRRGTSEVMVFIHGFASSIGTGIYRTAQIRYDFEVPGVAVHYAWPSSGSYIGYAYDRDSALFARDGLEELITGIMQTDLDVVLVAHSLGSSVVMEVLRQLRIAGRNALIDRIHGVILFSPDLDVDVFRSQASRIGDLPQPFVIFTSQRDQALTFSSIMAGRTARVGNLATADQVAEFDVTLIDVSAFEGGVRDRLNHFAGATSQSAVQILRDAAQINSAFEDGPDARPGLLPGTILTIQNATLVLLDPEHAR
Outgoing: not soluble

Incoming: Provide only the value of recorded soluble on expression in E. coli for GHVETIKNTFLNPKSNKVLVVAHRGNWRSAPENSTAAIDSAIAMKVDIVEIDIQKTKDGQLILMHDNTLDRTTTGKGEIKNWTLADIKKLKLKDKDGKVTNYVVPTLEEALLTAKGKIMVNLDKAYDIFDDVYAILEKTETQNQVIMKGGQPIETVKREFGSYLDKVLYMPVIDLGNKEAEKIITDYLKELRPAAFEIIYSDPKNPLPPKIKQLLFKKSLIWYNTLWGSLAGNHDDNLALTDPEKSYGYLIEQLGARILQTDQPAYLLDYLRKKGWHN
Outgoing: soluble

Incoming: Provide only the value of recorded soluble on expression in E. coli for MNFENDDIIHAPTTSSLILEERHDSELFRVYALILDGITDQVLLPGKKLTESELCRQMVCSRNTVRGALSLLAHDKIVDLQPNRGAFVHVPDLKEMQDVFNARIEMETMILNILADLPDLETRLKPLYAMIRREEEASGRGDRVGWNRLSNAFHVELARLVGNDVLFDIMNTLCARSSLIVAVAGVHREEKHAINTHTHSEHREILDLLLAGRRNRVVKILRRHLGNCMERLEKTLED
Outgoing: not soluble

Incoming: Provide only the value of recorded soluble on expression in E. coli for MKLKKTDVFNLDGTVKQTAFIHDQKTGKKNTLYLKPVQQDLMLYHAWLIQQNMNSEWLFPSTSRPDRPITEKQFYKIMARVGDLLGINYLGTHTMRKTGAYRVYTQSNYNIGLVMHLLNHSSEAMTLTYLGLDQASRENMLDQIDFG
Outgoing: not soluble

Incoming: Provide only the value of recorded soluble on expression in E. coli for MTVRALLTPEIAPRMGIVLFRPGSELMPLFMQGRVLLEPEPERYSSFASGAVPAASQPLADDPAVRAVFRNEAVIRRAGGVECLESWLLREKGCQWPHSDWHSENMTTMRHAPGAIRLCWHCDNQLRDQFTERLESMATDNCARWVLSVVRRDLGFDDSHVVTMPELCWWLVRNDLADALPESAARKALRLPKPVVPSVTRESDLVPSVPATSIIQDKAKKVLALKVDPESPESFMLRPKRRRWVNEKYTRWVKTQPCACCGKPADDPHHLIGHGQGGMGTKAHDLFVLPLCRKHHDELHADTVTFEEKYGSQLELIFRFIDRALAIGVLA
Outgoing: not soluble

Dear colleague, could you please provide soluble on expression in E. coli for the sequences listed below?
1. MTKKKLLKALAVAAIATSLVACSDSSSNDKTLTTAVSSGSSVATTTVAAPADNTNVTANASYIIGYGMGSSIATDKNIKTFNLNNDKVMAGFEDAINAKKPAIPLEDIANNMNTLRDKMQQQMNQKAVTSFLSVQDGIYNSDLTPKSDIKNPDVVVYEFFDYQCMYCSKLAPEIEKIMKDNSDVQVVFAEFPIFGQKLPASEYAAEVSTAIYKLYGADAYVKYHNGIFATGEDEGSLKNATVDNVAKQAGADMTKVNKAIQDDKIADHLKDMLKMGFGQLGIQGTPFLVIAPAKNATVANTTIIGGYTTADGIQAAINKAKSTATTTSTSNNGQTDTKQAQNDIATVTAEAQATSGSTEQLAQPR
2. MSATTTLKEQVLTTLKREQANAVVMYLNYKKYHWLTYGPLFRDLHLLFEEQGSEVFAMIDELAERSLMLDGQPVADPADYLKVATVTPSSGQLTVKQMIEEAIANHELIITEMHQDAEIATEAGDIGTADLYTRLVQTHQKHRWFLKEFLAKGDGLVS
3. SADPGPDPESESESVFPREVGLFADSYSEKSQFCFCGHVLTITQNFGSRLGVAARVWDAALSLCNYFESQNVDFRGKKVIELGAGTGIVGILAALQGGDVTITDLPLALEQIQGNVQANVPAGGQAQVRALSWGIDHHVFPANYDLVLGADIVYLEPTFPLLLGTLQHLCRPHGTIYLASKMRKEHGTESFFQHLLPQHFQLELAQRDEDENVNIYRARHREPRPA
4. MGSDKIHHHHHHMKLPRFGVEEWLNVHENSAIYDIAGVSISSLTLEELFALSGTNPEDFYKKLQGTKLNYGWIEGSPAFKKSVSQLYTGVKPEQILQTNGATGANLLVLYSLIEPGDHVISLYPTYQQLYDIPKSLGAEVDLWQIEEENGWLPDLEKLRQLIRPTTKMICINNANNPTGAVMDRTYLEELVEIASEVGAYILSDEVYRSFSELDVPSIIEVYDKGIAVNSLSKTYSLPGIRIGWVAANHQVTDILRDYRDYTMICAGVFDDLVAQLALAHYQEILERNRHILEENLAILDQWIEEEPLVSYIRPAVVSTSFVKIAVDMPMEDFCLQLLQEHGVLLVPGNRFERDGYVRLGFACEQETLIKGLEKLSQFLRRFDKEN
5. MGSDKIHHHHHHMKEKTVAIFNGYYIPHLGGVERYTYNIAKKLTEKGYRVIIITTQHDENLTNEEIQEGIKIYRLPIKNLWKNRYPFLKKNRIYHSLIEKIEAESIDYYVANTRFHLPAMLGVKMAKAKGKEAIVIEHGSSYLTLNNPVLDFMLRKIEQLLIGRVKKDTSLFYGVSNEASEWLKTFDIKAKGVLPNAVAVDEYFNQKIEKDEKKLTISYAGRLIPQMKGVEILLSTFSKLSKERKNLELIIAGDGPLLNEVKRKYSQKNIKFLGYVPYEKVLEIDAKSDVFVLMSRSEGFATAMLEAAMLENVIITTPTVGGARDIMPDETYGYIIENNETKLFETLTKVLDNKEHMRLMQKKISKNVLENFTWEQSAKQFIKVFNELDEK

Outgoing:
1: not soluble; 2: soluble; 3: not soluble; 4: not soluble; 5: not soluble
